quantity measured: melting point (°C)

Here is how some molecules turned out for melting point.
COc1ccc(-n2nccc2-c2ccc3noc(-c4ccc(F)cc4)c3c2)cc1 : 179
Cc1ccc(-n2nccc2-c2ccc3noc(-c4cccc(F)c4)c3c2)cc1 : 207
Cc1ccc(-n2nccc2-c2ccc3noc(-c4ccc(F)c(F)c4)c3c2)cc1 : 198
COc1ccc(-c2onc3ccc(-c4ccnn4-c4ccc(C)cc4)cc23)cc1F : 197
Fc1ccc(-n2nccc2-c2ccc3noc(-c4ccc(Cl)cc4)c3c2)c(F)c1 : 155

P: Fc1ccc(-n2nccc2-c2ccc3noc(-c4cccs4)c3c2)cc1
Q: Clc1ccc(-c2onc3ccc(-c4ccnn4-c4ccc(Cl)cc4)cc23)cc1
[in] Determine, for P and Q , which has the greater value of melting point. Lab log: write the label of the selected item as the result.
[out] Q
